Recorded values, source PubChem BioAssay (NCI).

Quick list: TGI per entry.
Test system: HOP-18 NSCLC
METHOD: NCI tumour cell line growth inhibition, 48 h

// below: answered compounds
COMPOUND | EXPERIMENTAL_SYSTEM | TGI
Cc1ccc2[nH]c3c(C)c4cc[n+](C)cc4c(C)c3c2c1 | HOP-18 NSCLC | > 58.5 µM
COC(=O)CCC(=O)C(CC(=O)OC)C(=O)CCC(=O)NCCc1ccccc1 (centres undefined) | HOP-18 NSCLC | > 100 µM
CC[C@@]1(O)C(=O)OCc2c1cc1n(c2=O)Cc2cc3c(OC)cccc3nc2-1 | HOP-18 NSCLC | > 100 µM

get_value(item= O=C(NC/C=C/CO)c1ccccc1 , readout=TGI) returns > 100 µM

get_value(item= CC(=O)OC1C(COC(N)=O)OC(n2c(-c3ccc(C)cc3)cc(-c3ccccc3)c(C#N)c2=O)C(OC(C)=O)C1OC(C)=O (centres undefined) , readout=TGI) returns > 100 µM

get_value(item= CC1=CC=C2C(C)(C)CC[C@@H]3OC(=O)[C@H]1[C@]23C , readout=TGI) returns > 100 µM

get_value(item= CNc1cccc(-c2cc(=O)c3cc4c(cc3[nH]2)OCO4)c1 , readout=TGI) returns > 100 µM

get_value(item= CC12CCC3C(CCC4(O)C=CCCC34C=O)C1(O)CC(O)C2c1ccc(=O)oc1 (centres undefined) , readout=TGI) returns 0.371 µM

get_value(item= NC(=S)N/N=C/c1cn(CCCl)c2ccccc12 , readout=TGI) returns > 100 µM

* * *

System: HCT-116 colon
METHOD: NCI tumour cell line growth inhibition, 48 h
RESULT_TYPE: GI50

// below: answered molecules
RECORD_SMILES | GI50
O=C(NCCCNc1cc(-c2cn(-c3ccccc3)nc2-c2cccc(O)c2)ccn1)c1ccc(F)cc1 | 2.14 µM
O=C(/C=C/c1cccnc1)c1ccccc1 | 2.14 µM
CCOC(=O)Nc1ccc2c3c(cccc13)-c1ccccc1-2 | 4.22 µM
O=C1NC(=N[C@@H]2C[C@H]2c2ccccc2)S/C1=C\c1ccc2ncccc2c1 | 0.839 µM
Fc1ccc(-c2nn3c(COc4ccccc4Cl)nnc3s2)cc1Oc1ccccc1 | 23.2 µM

get_value(item= COc1ccc(-c2nc(Nc3ccc(F)cc3)nc(Nc3ccc4c(c3)nc(C)n4Cc3ccccc3)n2)cc1 , readout=GI50) returns 3 µM

* * *

Quick list: GI50 per entry.
System: SF-295 CNS
METHOD: NCI tumour cell line growth inhibition, 48 h

RECORD_SMILES | GI50
CO[C@@H]1[C@H](N(C)C(=O)c2ccccc2)C[C@@H]2O[C@]1(C)n1c3ccccc3c3c4c(c5c6ccccc6n2c5c31)C(=O)NC4=O | 1450 nM
Fc1cc(C2=Nn3c(nnc3-c3cc(F)c(Cl)cc3Cl)SC2)c(Cl)cc1Cl | 20300 nM

API: the following record is the query input.
get_value(item= O=C([CH-]C(=O)c1ccccc1)c1ccccc1.O=C([CH-]C(=O)c1ccccc1)c1ccccc1.[CH2-]CCC.[CH2-]CCC.[Sn+4] , readout=GI50) returns 1120 nM

* * *

Tested on: TK-10 renal
METHOD: NCI tumour cell line growth inhibition, 48 h
RESULT_TYPE: TGI

RECORD_SMILES | TGI
CC(=O)Nc1ccc(S(=O)(=O)N/N=C/c2cc(I)cc([N+](=O)[O-])c2O)cc1 | > 100 µM
N=C(N)SCCSC(=N)N | > 100 µM

API: the following record is the query input.
For Cc1cccc2c1NC(=O)[C@@H](NC(=O)[C@H](CCC(F)(F)F)[C@H](CCC(F)(F)F)C(N)=O)N=C2c1cccc(F)c1 on TK-10 renal, measured TGI was > 100 µM

* * *

Test system: HS 578T breast
METHOD: NCI tumour cell line growth inhibition, 48 h
RESULT_TYPE: TGI (µM)
Write the answer as a number in µM, unit excluded.

// below: answered compounds
RECORD_SMILES | TGI (µM)
CCCC(c1cc(C(C)(C)C)c(O)cc1C)c1cc(C(C)(C)C)c(O)cc1C | 9.79
Cc1ccc(C2=NN=C3C(c4ccccc4)=Nc4ccccc4N3C2)cc1 | 40
Cc1ccc(NC(=O)C23CC4CC(CC(C4)C2)C3)c(C(=O)NNC(=O)c2ccc(Cl)cc2)c1 | 33.8

get_value(item= CNc1cccc(-c2cc(=O)c3cc4c(cc3[nH]2)OCO4)c1 , readout=TGI) returns 8.96

* * *

Tested on: LOX IMVI melanoma
METHOD: NCI tumour cell line growth inhibition, 48 h
RESULT_TYPE: TGI

// below: answered compounds
COMPOUND | TGI
CC(C)(C)OC(=O)CCC1NC(=O)[C@@H]2Cc3c([nH]c4ccccc34)C(c3ccccc3)N2C1=O (stereo partly drawn) | 36.3 µM
COc1ccc(-c2nnc3c4ccccc4sn23)cc1 | > 100 µM

API: the following record is the query input.
get_value(item= O=C(/C=C/c1cccnc1)c1ccccc1 , readout=TGI) returns 3.62 µM

* * *

Quick list: TGI per entry.
System: SK-MEL-2 melanoma
METHOD: NCI tumour cell line growth inhibition, 48 h
Write the answer as a number in µM, unit excluded.

RECORD_SMILES | UNIT_SPEC | TGI
COc1ccc(-c2nc(SCC(=O)N/N=C/c3ccc([N+](=O)[O-])cc3)[nH]c2-c2ccc(OC)cc2)cc1 | µM | 20.5

get_value(item= CCOC(=O)c1c2c(n(Cc3ccccc3)c1C)-c1nc[nH]c1C(=O)C2=O , readout=TGI) returns 32.2

* * *

Test system: TK-10 renal
METHOD: NCI tumour cell line growth inhibition, 48 h
RESULT_TYPE: TGI

// below: answered molecules
MOLECULE | TGI
COCN1C(=O)[C@@H]2CCCN2C(=O)c2ccc(Cl)cc21 | > 100 µM
O=c1[nH]ncc2[nH]c(-c3ccccc3)cc12 | > 100 µM
Cc1cc2c(=O)cc(-c3ccc(C(=O)O)cc3)oc2c(C(N)=O)c1C | > 100 µM
O=c1n(Cc2ccccc2)c2ccccc2n1CC1CS1 (stereo not drawn) | > 100 µM
CCOC(=O)C(=O)N=Nc1c(O)[nH]c2ccccc12 | > 100 µM
CC(C)(C)OC(=O)CCC1NC(=O)[C@@H]2Cc3c([nH]c4ccccc34)C(c3ccccc3)N2C1=O (stereo partly drawn) | > 100 µM

get_value(item= O=C(O)c1cc(C(=O)C(=O)c2cc(C(=O)O)c(O)c3ccccc23)c2ccccc2c1O , readout=TGI) returns > 100 µM

get_value(item= CC1OC(n2ccc3ccc([N+](=O)[O-])cc32)C(O)C(O)C1O (stereo not drawn) , readout=TGI) returns > 100 µM

get_value(item= CCOc1ccc(-n2c(=O)c3nn4c(=O)n(-c5ccc(OCC)cc5)c(=O)c4nn3c2=O)cc1 , readout=TGI) returns > 100 µM

* * *

Quick list: TGI per entry.
Test system: OVCAR-4 ovarian
METHOD: NCI tumour cell line growth inhibition, 48 h

MOLECULE | EXPERIMENTAL_SYSTEM | RESULT_TYPE | VALUE_REPORTED
Cc1cnc2cc(Cl)ccc2c1NCCN(CC(C)C)CC(C)C | OVCAR-4 ovarian | TGI | > 100 µM
Nc1ccc(-c2nnc(-c3c(Cl)c(Cl)c(Cl)c(Cl)c3-c3nc4ccc(C(=O)c5ccccc5)cc4[nH]3)o2)cc1 | OVCAR-4 ovarian | TGI | > 100 µM
Cc1ccc2[nH]c3c(C)c4cc[n+](C)cc4c(C)c3c2c1 | OVCAR-4 ovarian | TGI | 13.4 µM

get_value(item= CC[C@H](C)[C@H](NC(=O)[C@H](Cc1ccc(O)cc1)NCC(F)(F)F)C(=O)OC(C)(C)C , readout=TGI) returns 13.3 µM

get_value(item= Cc1cc2c(=O)cc(-c3ccc(C(=O)O)cc3)oc2c(C(N)=O)c1C , readout=TGI) returns > 100 µM

get_value(item= CSc1nc(SC)c2c(C)cn(Cc3ccccc3)c2n1 , readout=TGI) returns > 100 µM

get_value(item= CC[C@@]1(O)C(=O)OCc2c1cc1n(c2=O)Cc2cc3c(OC)cccc3nc2-1 , readout=TGI) returns 11.9 µM

get_value(item= COC(=O)C(=O)C(C(=O)C(=O)Nc1ccccc1C(N)=O)c1nc2ccc([N+](=O)[O-])cc2[nH]c1=O (stereo unspecified) , readout=TGI) returns > 100 µM

get_value(item= COc1cc(S(=O)(=O)Nc2ccc(-c3csc(/N=C\c4ccccc4O)n3)cc2)ccc1Cl , readout=TGI) returns > 100 µM

get_value(item= N#Cc1nc(N)c(C#N)[nH]1 , readout=TGI) returns > 100 µM

get_value(item= Cc1cc(C)c2c(=O)cc(-c3ccc(F)cc3)[nH]c2n1 , readout=TGI) returns 48.3 µM

get_value(item= COc1ccc(-c2nc(Nc3ccc(F)cc3)nc(Nc3ccc4c(c3)nc(C)n4Cc3ccccc3)n2)cc1 , readout=TGI) returns > 100 µM

get_value(item= Cc1cc2c(=O)c3ccc(Cl)cc3[nH]c2c(C(=O)O)c1C , readout=TGI) returns > 100 µM

get_value(item= Oc1c(CCl)cc(Cl)cc1Cc1cc(Cl)cc(Cc2cc(Cl)cc(CCl)c2O)c1O , readout=TGI) returns 64.7 µM

get_value(item= N[C@@H]1c2c(Br)sc(Br)c2C(=O)[C@H]1Br , readout=TGI) returns 89.5 µM

get_value(item= O=C(O)[C@@]1(Cc2ccc(O)cc2)C[C@@H]2Cc3ccccc3N2N1 , readout=TGI) returns > 100 µM
